# SUBJECT OF TEST: Human PI3K alpha (Homo sapiens)
# Construct: His (N); host or cells: SF9 insect cells (baculovirus)
# Sequence (P42336 whole entry): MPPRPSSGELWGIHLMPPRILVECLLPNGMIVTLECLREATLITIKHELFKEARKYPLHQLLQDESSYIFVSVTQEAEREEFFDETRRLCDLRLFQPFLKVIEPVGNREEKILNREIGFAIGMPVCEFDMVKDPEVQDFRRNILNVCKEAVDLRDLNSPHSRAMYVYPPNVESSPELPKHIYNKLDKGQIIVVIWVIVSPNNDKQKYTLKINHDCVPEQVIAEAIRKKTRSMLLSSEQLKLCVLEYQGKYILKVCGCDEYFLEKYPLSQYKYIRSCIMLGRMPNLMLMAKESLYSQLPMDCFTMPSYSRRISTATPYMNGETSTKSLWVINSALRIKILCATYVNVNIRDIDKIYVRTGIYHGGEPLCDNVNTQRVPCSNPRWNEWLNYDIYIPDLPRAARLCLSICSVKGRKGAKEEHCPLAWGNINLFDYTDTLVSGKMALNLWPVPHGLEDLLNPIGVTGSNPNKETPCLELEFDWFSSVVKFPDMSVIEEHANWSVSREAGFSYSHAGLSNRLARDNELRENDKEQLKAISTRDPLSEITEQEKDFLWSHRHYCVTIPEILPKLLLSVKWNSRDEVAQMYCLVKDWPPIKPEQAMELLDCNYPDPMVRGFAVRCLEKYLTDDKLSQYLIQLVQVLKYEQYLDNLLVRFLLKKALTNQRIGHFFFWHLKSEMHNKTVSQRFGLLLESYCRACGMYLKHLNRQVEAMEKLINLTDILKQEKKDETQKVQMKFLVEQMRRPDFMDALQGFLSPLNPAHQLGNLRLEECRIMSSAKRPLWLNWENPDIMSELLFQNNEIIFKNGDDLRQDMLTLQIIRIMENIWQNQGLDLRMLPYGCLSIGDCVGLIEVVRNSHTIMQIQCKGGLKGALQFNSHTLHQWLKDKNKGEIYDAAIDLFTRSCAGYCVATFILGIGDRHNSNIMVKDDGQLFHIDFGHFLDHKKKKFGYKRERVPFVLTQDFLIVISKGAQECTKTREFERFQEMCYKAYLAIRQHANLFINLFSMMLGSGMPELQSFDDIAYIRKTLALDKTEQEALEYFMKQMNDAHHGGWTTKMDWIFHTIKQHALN
# Sequence (P27986 whole entry partner): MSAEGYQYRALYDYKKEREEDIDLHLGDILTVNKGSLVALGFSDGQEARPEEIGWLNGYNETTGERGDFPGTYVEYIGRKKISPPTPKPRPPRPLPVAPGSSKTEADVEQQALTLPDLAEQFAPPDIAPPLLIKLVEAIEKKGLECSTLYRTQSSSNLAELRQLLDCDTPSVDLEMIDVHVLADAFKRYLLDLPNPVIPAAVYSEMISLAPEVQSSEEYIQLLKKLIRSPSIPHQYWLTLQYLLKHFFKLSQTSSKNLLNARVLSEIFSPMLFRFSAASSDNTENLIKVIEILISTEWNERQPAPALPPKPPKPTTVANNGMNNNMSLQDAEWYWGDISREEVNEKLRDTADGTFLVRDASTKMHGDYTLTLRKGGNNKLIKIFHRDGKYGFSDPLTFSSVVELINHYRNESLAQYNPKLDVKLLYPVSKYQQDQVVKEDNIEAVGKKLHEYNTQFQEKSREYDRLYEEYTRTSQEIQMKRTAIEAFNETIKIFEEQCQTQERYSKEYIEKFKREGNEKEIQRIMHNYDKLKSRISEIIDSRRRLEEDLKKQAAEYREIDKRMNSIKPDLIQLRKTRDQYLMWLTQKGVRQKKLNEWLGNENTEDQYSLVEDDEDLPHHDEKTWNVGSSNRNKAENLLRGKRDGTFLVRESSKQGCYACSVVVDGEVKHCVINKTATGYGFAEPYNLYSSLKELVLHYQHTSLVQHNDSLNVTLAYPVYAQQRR
# ASSAY EXPLANATION: Human PI3K alpha enzyme assay (HTRF)
# Format: biochemical
# EXPERIMENTAL SETUP: concentration not given; b1387 states 1.1 μM for PI3K α and β; read-out: p110 alpha Percent Inhibition
Give inhibition at 1.1 µM for every item shown.
Numbers only, in %.

COMPOUND	EXPERIMENTAL RESULT
CC(=O)Nc1cc(-c2cc(C(O)(CCCN(C)C)c3ccc(Cl)cc3)c(-c3nnc[nH]3)s2)ccn1 (stereo not shown)	64
OC(c1cnc2ccccc2c1)c1cc(-c2ccncc2)sc1-c1nnc[nH]1 (stereo not shown)	45
O=C(O)Cc1sc(N2CCOCC2)nc1Cc1ccc(Cl)c(Cl)c1	4
OC(c1ccc(Cl)cc1)c1cc(-c2ccnc(Nc3ncco3)c2)sc1-c1nnc[nH]1 (stereo not shown)	83
OC(c1cc(-c2ccncc2)sc1-c1nnc[nH]1)c1ccnc2ccccc12 (stereo not shown)	19
CC(=O)Nc1cc(-c2cc(C(c3ccc(Cl)cc3)N3CC(O)C3)c(-c3nnc[nH]3)s2)ccn1 (stereo not shown)	74

Dear colleague, could you please provide inhibition at 1.1 µM for the compounds listed below?
1. CC(=O)Nc1cc(-c2cc(C(OC[C@@H]3CCCN3)c3ccc(Cl)cc3)c(-c3nnc[nH]3)s2)ccn1 (stereo partly shown)
2. CC(=O)Nc1cc(-c2cc(C(c3ccc(Cl)cc3)N3CCC3)c(-c3nnc[nH]3)s2)ccn1 (stereo not shown)
3. N#Cc1ccc2ccc(Cc3nc(N4CCOCC4)sc3C(=O)O)cc2c1
4. CC(=O)Nc1cc(-c2cc(C(c3ccc(Cl)cc3)N(C)C3CCNCC3)c(-c3nnc[nH]3)s2)ccn1 (stereo not shown)

1: 81; 2: 72; 3: 17; 4: 68
